Test system: DMS-273
protocolText: NCI tumour cell line growth inhibition, 48 h
Activity calls are given as the source filed them. Cut-off read from the data, not from the text of the source: active = GI50 up to about 1.1 µM and inactive = higher.
Possible outcomes: active, inactive

molecule="c1ccc(C2=NN(c3ccccc3)C3(S2)SC(c2ccccc2)(c2ccccc2)c2ccccc23)cc1 (stereo not given)" assignedclass=inactive
molecule="COC(=O)C1Cc2c([nH]c3ccccc23)C(c2ccccc2O)N1Cc1ccccc1 (stereo not given)" assignedclass=inactive
molecule="Cn1c(=O)c(C2c3ccccc3Oc3c2c(=O)n(C)c2ccccc32)c(O)c2ccccc21 (stereo not given)" assignedclass=inactive
molecule="OC1(c2ccccc2)OC(C#Cc2ccccc2)(c2ccccc2)c2ccccc21 (stereo not given)" assignedclass=inactive
molecule=COc1cc(CNc2ccc(C)cc2)cc(OC)c1OC assignedclass=active
molecule="O=C(NC(Cc1ccc(I)cc1)C(=O)O)c1ccc(Br)cc1 (stereo not given)" assignedclass=inactive
molecule=O=C(/C=C/c1ccccc1F)c1ccc(Cl)c(Cl)c1 assignedclass=inactive
molecule=Cc1c2cc[n+](C)cc2c(C)c2c1[nH]c1ccc(OC(C)C)cc12 assignedclass=inactive
molecule="COc1cc(C2c3cc4c(cc3[C@@H](N(C)C)[C@H]3COC(=O)C23)OCO4)cc(OC)c1O (stereo not given in full)" assignedclass=inactive
molecule="O=C(CC(=O)N1N=C(n2ccc3ccccc32)CC1c1ccccc1)Nc1ccc(Cl)cc1 (stereo not given)" assignedclass=inactive

====

# key: entry, value: GI50
System: 786-0
protocolText: NCI tumour cell line growth inhibition, 48 h
Active and inactive are the calls of the source. No stated cut-off is given here; in the data, active = GI50 up to about 1.1 µM and inactive = higher.
valueType: GI50

structurestring=COc1ccccc1NC(=O)C1=C(C)NC(C)=C(C(=O)Nc2ccccc2OC)C1/C=C/c1ccccc1 valuetype=GI50 valuemeasured="> 100 µM (inactive)"
structurestring=COc1cc2cc3c4c(cc(OC)c(OC)c4c2cc1OC)CCN3C(=O)N(C)C valuetype=GI50 valuemeasured="44.5 µM (inactive)"
structurestring=COC(=O)c1c(O)ccc2c1c1c(n2CCc2ccccc2)C(=O)c2ccccc2C1=O valuetype=GI50 valuemeasured="16.7 µM (inactive)"
structurestring=Cc1ccccc1-n1c(C)nc2c1C(=O)c1ccccc1C2=O valuetype=GI50 valuemeasured="44.8 µM (inactive)"
structurestring=CCOC(=O)c1c2cccccc2n2c(=O)cc(C)nc12 valuetype=GI50 valuemeasured="> 100 µM (inactive)"

====

Tested on: TK-10
protocolText: NCI tumour cell line growth inhibition, 48 h
The source made the active and inactive calls. Cut-off read from the data, not from the text of the source: active = GI50 up to about 1.1 µM and inactive = higher.
valueType: GI50

compound=Cn1cnc2[nH]c(=O)[nH]c(=S)c21 experimentaltarget=TK-10 valuetype=GI50 valuemeasured="> 100 µM (inactive)"
compound=CC(=O)ON(OC(C)=O)c1ccc(C)cc1 experimentaltarget=TK-10 valuetype=GI50 valuemeasured="> 100 µM (inactive)"
compound=CC(=O)c1sc2c(c1OC(=O)c1ccco1)c(=O)n(-c1ccccc1)c(=S)n2-c1ccccc1 experimentaltarget=TK-10 valuetype=GI50 valuemeasured="31.8 µM (inactive)"
compound="C=CCCCN1C(=O)C2C3c4ccccc4C(C=O)(c4ccccc43)C2C1=O (stereo not given)" experimentaltarget=TK-10 valuetype=GI50 valuemeasured="16.1 µM (inactive)"
compound="COc1cc2c(c(OC)c1OC)-c1cccc(=O)cc1C(NC(C)=O)CC2 (stereo not given)" experimentaltarget=TK-10 valuetype=GI50 valuemeasured="> 28.2 µM (inactive)"
compound="NC(CCSCC(F)(F)F)C(=O)O (stereo not given)" experimentaltarget=TK-10 valuetype=GI50 valuemeasured="> 100 µM (inactive)"
compound="CC1CCC2C(C(=O)O[C@H]3C4C=CO[C@@H](OC5OC(CO)C(O)C(O)C5O)C4[C@@]4(CO)O[C@@H]34)=CO[C@@H](OC3OC(CO)C(O)C(O)C3O)C12 (stereo not given in full)" experimentaltarget=TK-10 valuetype=GI50 valuemeasured="> 10 µM (inactive)"
compound=CC(C)OC(=O)c1ccc(NCC2=CC(=O)C=CC2=O)cc1 experimentaltarget=TK-10 valuetype=GI50 valuemeasured="15.3 µM (inactive)"
compound=O=C(Cc1ccccc1)N/N=C/c1ccccc1O experimentaltarget=TK-10 valuetype=GI50 valuemeasured="22.4 µM (inactive)"
compound="O=C(c1ccccc1)C1C(c2ccccc2)N1S(=O)(=O)c1ccccc1 (stereo not given)" experimentaltarget=TK-10 valuetype=GI50 valuemeasured="> 100 µM (inactive)"

====

Test system: DLD-1
protocolText: NCI tumour cell line growth inhibition, 48 h
Calls of active or inactive are those of the source. No stated cut-off is given here; in the data, active = GI50 up to about 1.1 µM and inactive = higher.
Possible outcomes: 1 (active), 0 (inactive)

compound="O=c1c2ccccc2nc(-c2ccccc2)n1NC1OC(CO)C(O)C(O)C1O (stereo not given)" experimentaltarget=DLD-1 assignedclass=0
compound=O=C1C(c2ccccc2)=C(c2ccccc2)C(c2ccc(Cc3ccc(C4=C(c5ccccc5)C(=O)C(c5ccccc5)=C4c4ccccc4)cc3)cc2)=C1c1ccccc1 experimentaltarget=DLD-1 assignedclass=0
compound=COCCN1C2=CCCCC2=Nc2c(N)nc(N)nc21 experimentaltarget=DLD-1 assignedclass=0
compound="CC(=O)C1Cn2c(nc3ccccc32)C[Se]1 (stereo not given)" experimentaltarget=DLD-1 assignedclass=0
compound=CCN(CC)CCNc1ccc2nc(C)n3c4ccc(OC)cc4c(=O)c1c23 experimentaltarget=DLD-1 assignedclass=1
compound=COc1cc2cc3c4c(cc(OC)c(OC)c4c2cc1OC)CCN3C(=O)N(C)C experimentaltarget=DLD-1 assignedclass=0
compound="Cc1ccc(NC(=O)CC2SC(Nc3cccc(Cl)c3C)=NC2=O)cc1 (stereo not given)" experimentaltarget=DLD-1 assignedclass=0
compound="C/C(=N\\NC(=N)N)C(CN(CC(C)C)CC(C)C)C(=O)Nc1ccc(C)cc1C (stereo not given)" experimentaltarget=DLD-1 assignedclass=0
compound=OCCN(CCO)c1cccc(N(CCO)CCO)c1 experimentaltarget=DLD-1 assignedclass=0
compound="COC(=O)C(=O)C(C#N)c1ccc(Cl)c(Cl)c1 (stereo not given)" experimentaltarget=DLD-1 assignedclass=0
compound=Cc1ccc(NC(=O)c2nc(S)nc(N)c2-c2ccccc2C)cc1C experimentaltarget=DLD-1 assignedclass=0
compound=CSc1ccc(/C=C2/C[N+](C)(C)C/C(=C/c3ccc(SC)cc3)C2=O)cc1 experimentaltarget=DLD-1 assignedclass=0
compound="c1ccc(C2=NN(c3ccccc3)C3(S2)SC(c2ccccc2)(c2ccccc2)c2ccccc23)cc1 (stereo not given)" experimentaltarget=DLD-1 assignedclass=0
compound=Cc1nc(=O)n2c(C)n[nH]c2c1C(=O)Nc1cc(Cl)cc(Cl)c1 experimentaltarget=DLD-1 assignedclass=0
compound="O=C(O)C1=C(C(=O)Nc2ccccc2)C2C=CC1C2 (stereo not given)" experimentaltarget=DLD-1 assignedclass=0
compound="COC(=O)NC(=O)c1cn(C2OC(CO)C(O)C2O)c(=O)[nH]c1=O (stereo not given)" experimentaltarget=DLD-1 assignedclass=0
compound=Nc1ccc(C(=O)N/C(=C\C=C\c2ccco2)c2nc3c4c(ccc3[nH]2)C(=O)c2ccccc2C4=O)cc1 experimentaltarget=DLD-1 assignedclass=0
compound="OC1(c2ccccc2)OC(C#Cc2ccccc2)(c2ccccc2)c2ccccc21 (stereo not given)" experimentaltarget=DLD-1 assignedclass=0
compound=O=C(N/C(=C\c1ccc([N+](=O)[O-])cc1)c1nc2c(O)nc(S)nc2[nH]1)c1ccccc1 experimentaltarget=DLD-1 assignedclass=0
compound=COc1ccccc1NC(=O)C1=C(C)NC(C)=C(C(=O)Nc2ccccc2OC)C1/C=C/c1ccccc1 experimentaltarget=DLD-1 assignedclass=0
compound=COc1ccc(CCc2cc(OC)c(O)c(OC)c2)cc1 experimentaltarget=DLD-1 assignedclass=0
compound=CCCCCCCCCc1cc(=O)c2ccc(OCc3ccccc3)cc2o1 experimentaltarget=DLD-1 assignedclass=0
compound="COc1cc(C2c3cc4c(cc3[C@@H](N(C)C)[C@H]3COC(=O)C23)OCO4)cc(OC)c1O (stereo not given in full)" experimentaltarget=DLD-1 assignedclass=0
compound=O=c1c2ccccc2c(=O)n2n1-c1cccc(c1)CSSCc1cccc-2c1 experimentaltarget=DLD-1 assignedclass=0
compound="COc1ccc(OC)c2c1C(=O)C1CC1(Br)C2=O (stereo not given)" experimentaltarget=DLD-1 assignedclass=0

====

Tested on: SF-268
protocolText: NCI tumour cell line growth inhibition, 48 h
Calls of active or inactive are those of the source. Rule as the data show it: active = GI50 up to about 1.1 µM and inactive = higher.
Labels: y for active, n for inactive

molecule=CCOc1ccc(Nc2nc(N)nc(N)c2N)cc1 assignedclass=n
molecule="CNC(=O)C(C)C1C(=O)/C(=C(O)/C=C\\C(C)=C\\C(C)C2OC3(C)OC(C=CC34CO4)C2C)C(=O)N1C1CCC(O)C(C)O1 (stereo unspecified)" assignedclass=n
molecule="CCOC(=O)C(NC(=O)c1ccccc1)(N1CCN(c2cc3c(cc2F)c(=O)c(C(=O)O)cn3CC)CC1)C(F)(F)F (stereo unspecified)" assignedclass=n
molecule="O=C(c1ccccc1)C1C(c2ccccc2)N1S(=O)(=O)c1ccccc1 (stereo unspecified)" assignedclass=n
molecule=O=C1C(O)=C(CCCc2ccc(Oc3ccccc3)cc2)C(=O)c2ccccc21 assignedclass=n
molecule=CCC[C@@H]1C(=O)N=C(N)N1C(=O)OCc1ccccc1 assignedclass=n
molecule=COc1ccc(S(=O)(=O)Nc2ccc(-c3csc(N4C(=O)/C(=C/c5ccccc5)N=C4c4ccccc4)n3)cc2)cc1Cl assignedclass=n
molecule="N#CC1([N+](=O)[O-])C=C1c1ccccc1 (stereo unspecified)" assignedclass=n
molecule=O=C(CCCN1CC=C(n2c(=O)[nH]c3ccccc32)CC1)c1cccs1 assignedclass=n
molecule=O=[N+]([O-])C(/C=C(\Cl)[N+](=O)[O-])=C(Nc1ccccc1)Nc1ccccc1 assignedclass=n
molecule=N=C1C=CC(=C(c2ccc(N)cc2)c2ccc(N)cc2)C=C1 assignedclass=y
